Items are presented alongside their recorded IC50.
# Test system: HeLa S3 cells
# ASSAY PROTOCOL: Growth Inhibition Test on HeLa S3 Cells
# Format: cell-based
# MEASUREMENT CONTEXT: Homo sapiens, 1 h exposure, then 72 h incubation, Neutral Red, read-out: IC50 (cell growth inhibition)
Answer format: numeric, nM implied, no suffix.

Here's what some known entries look like.
molecule="COC1C(N(C)C(=O)CN(C)C)CC2OC1(C)n1c3ccccc3c3c4c(c5c6ccccc6n2c5c31)C(=O)NC4O (centres unmarked)" observed=1500
molecule="COC1C(N(C)C(=O)CN2CCOCC2)CC2OC1(C)n1c3ccccc3c3c4c(c5c6ccccc6n2c5c31)C(=O)NC4O (centres unmarked)" observed=2200
molecule="COC1C(N(C)CC(O)CO)CC2OC1(C)n1c3ccccc3c3c4c(c5c6ccccc6n2c5c31)C(=O)NC4O (centres unmarked)" observed=1900
molecule="COC1C(N(C)CCO)CC2OC1(C)n1c3ccccc3c3c4c(c5c6ccccc6n2c5c31)C(=O)NC4O (centres unmarked)" observed=2200

Now look at this entry.
Value lookup for IC50; key = COC1C(N(C)CCCC(=O)O)CC2OC1(C)n1c3ccccc3c3c4c(c5c6ccccc6n2c5c31)C(=O)NC4O (centres unmarked) 4600

Where do these numbers come from? They come from patent US5344926A.
